tested on: methicillin-resistant Staphylococcus aureus MRSA 18-575; assay: MIC by microbroth dilution, MRSA 18-575; assay type: cell-based; conditions: Staphylococcus aureus; strain MRSA 18-575; 37° C., 20-22 hours; read-out: Minimum bacteriostatic concentration (MIC)
Assay Readout: MIC

Specify MIC for CO/N=C(\C(=O)N[C@@H]1C(=O)N2C(C(=O)O)=C(CSc3nc(=O)c(=O)[nH]n3C)CS[C@H]12)c1csc(N)n1 [Ceftriaxone sodium] and stop.
> 128 µg/mL

Consider the compound C=C[C@]1(C)C[C@@H](OC(=O)CO)[C@]2(C)[C@H](C)CC[C@]3(CCC(=O)[C@H]32)[C@@H](C)[C@@H]1O and give its recorded MIC.
> 128 µg/mL

Look up and state reported MIC for Cc1nnc(SCC2=C(C(=O)O)N3C(=O)[C@@H](NC(=O)Cn4cnnn4)[C@H]3SC2)s1 [Cefazolin sodium]
> 128 µg/mL

API: the following record is the query input.
Dear colleague, please send me the reported MIC for C=C[C@]1(C)C[C@@H](OC(=O)COC(=O)/C=C(C)/C=C/C=C(C)/C=C/c2c(C)cc(OC)c(C)c2C)[C@]2(C)CC[C@@H](C)C3(CCC(=O)[C@H]32)[C@@H](C)[C@@H]1O when you can.
64 µg/mL
